Parameter: viability, T/C. Scope: all listed entries.
tested on: SW 1271 complex tumor spheroid viability; test: Anticancer human tumor SW 1271 cell line growth inhibition; settings: second compound 0.3 µM; first compound 0.949 µM; stronger effect = lower value;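 note: spheroids exposed to agents for seven days before readout; percent of DMSO vehicle control luminescence so 100% = vehicle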

Specify measured viability, T/C for Cc1sc2c(c1C)C(c1ccc(Cl)cc1)=NC(CC(=O)Nc1ccc(O)cc1)c1nnc(C)n1-2 (centres undefined) + CC[C@@]1(O)C(=O)OCc2c1cc1n(c2=O)Cc2cc3c(CN(C)C)c(O)ccc3nc2-1 .
0.91%

Specify measured viability, T/C for Cn1ncnc1[C@H]1c2n[nH]c(=O)c3cc(F)cc(c23)N[C@@H]1c1ccc(F)cc1 + CC[C@@]1(O)C(=O)OCc2c1cc1n(c2=O)Cc2cc3c(CN(C)C)c(O)ccc3nc2-1 .
6.32%

Specify measured viability, T/C for O=C(c1cc(Cc2n[nH]c(=O)c3ccccc23)ccc1F)N1CCN(C(=O)C2CC2)CC1 + CC[C@@]1(O)C(=O)OCc2c1cc1n(c2=O)Cc2cc3c(CN(C)C)c(O)ccc3nc2-1 .
12.1%

Specify measured viability, T/C for CNCc1ccc(-c2cc(-c3nc(-c4ccc(S(=O)(=O)C(C)C)cc4)cnc3N)on2)cc1 + CC[C@@]1(O)C(=O)OCc2c1cc1n(c2=O)Cc2cc3c(CN(C)C)c(O)ccc3nc2-1 .
1.75%

###

Parameter: viability, T/C. Scope: all listed entries.
tested on: SW 1271 complex tumor spheroid viability; assay: Anticancer human tumor SW 1271 cell line growth inhibition; details: second compound 100 µM; first compound 0.0316 µM; stronger effect = lower value;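 note: spheroids exposed to agents for seven days before readout; percent of DMSO vehicle control luminescence so 100% = vehicle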
Answer with a number only, understood to be in %.

>>> result_value("[2H]c1nc(C)nc([2H])c1-c1cc(NC[C@@H](C)c2cccc3c(C(=O)NC)ccnc23)ncn1 + Cn1nnc2c(C(N)=O)ncn2c1=O")
93.1
>>> result_value("COc1cc(C)[nH]c(=O)c1CN1CCc2c(Cl)cc(C(OC)C3COC3)c(Cl)c2C1=O (stereo unspecified) + Cn1nnc2c(C(N)=O)ncn2c1=O")
88.7
>>> result_value("Cc1cc(C)c(CNC(=O)c2cc(-c3ccc(CN4CCOCC4)cc3)cc3c2cnn3C2CCCC2)c(=O)[nH]1 + Cn1nnc2c(C(N)=O)ncn2c1=O")
91.8
>>> result_value("COc1ccc([C@@H](O)c2cc(-c3ncnc4cc(N5CCOCC5)ccc34)c(F)cc2Cl)nn1 + Cn1nnc2c(C(N)=O)ncn2c1=O")
83.8
>>> result_value("CC1COCCN1c1cc(-c2ccnn2C)c2ccnc(-c3ccn[nH]3)c2n1 (stereo unspecified) + Cn1nnc2c(C(N)=O)ncn2c1=O")
33.5

Specify measured viability, T/C for CC(C)n1c(=O)n(C)c2cnc3cc(F)c(-c4ccc(OCCCN5CCCCC5)nc4)cc3c21 + Cn1nnc2c(C(N)=O)ncn2c1=O .
70.5

###

system: SW 1271 complex tumor spheroid viability; experiment: Anticancer human tumor SW 1271 cell line growth inhibition; settings: second compound 0.0003 µM; first compound 1 µM; active means viability on the fitted dose curve at most 10% of control; inactive means the rest;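 note: spheroids exposed to agents for seven days before readout; percent of DMSO vehicle control luminescence so 100% = vehicle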
Valid outcomes are listed here; reply with one: active, inactive

Take a look at these entries with their results.
>>> class_name("CC1COCCN1c1cc(-c2ccnn2C)c2ccnc(-c3ccn[nH]3)c2n1 (stereo unspecified) + COc1cc2c(cc1O)CCNC21CSC2c3c(OC(C)=O)c(C)c4c(c3C(COC1=O)N1C(O)C3Cc5cc(C)c(OC)c(O)c5C(C21)N3C)OCO4")
"active"
>>> class_name("CC(C)n1c(=O)n(C)c2cnc3cc(F)c(-c4ccc(OCCCN5CCCCC5)nc4)cc3c21 + COc1cc2c(cc1O)CCNC21CSC2c3c(OC(C)=O)c(C)c4c(c3C(COC1=O)N1C(O)C3Cc5cc(C)c(OC)c(O)c5C(C21)N3C)OCO4")
"inactive"
>>> class_name("Cc1cc(C)c(CNC(=O)c2cc(-c3ccc(CN4CCOCC4)cc3)cc3c2cnn3C2CCCC2)c(=O)[nH]1 + COc1cc2c(cc1O)CCNC21CSC2c3c(OC(C)=O)c(C)c4c(c3C(COC1=O)N1C(O)C3Cc5cc(C)c(OC)c(O)c5C(C21)N3C)OCO4")
"inactive"

Tell me the assay call for [2H]c1nc(C)nc([2H])c1-c1cc(NC[C@@H](C)c2cccc3c(C(=O)NC)ccnc23)ncn1 + COc1cc2c(cc1O)CCNC21CSC2c3c(OC(C)=O)c(C)c4c(c3C(COC1=O)N1C(O)C3Cc5cc(C)c(OC)c(O)c5C(C21)N3C)OCO4 please.
inactive

Tell me the assay call for COc1ccc([C@@H](O)c2cc(-c3ncnc4cc(N5CCOCC5)ccc34)c(F)cc2Cl)nn1 + COc1cc2c(cc1O)CCNC21CSC2c3c(OC(C)=O)c(C)c4c(c3C(COC1=O)N1C(O)C3Cc5cc(C)c(OC)c(O)c5C(C21)N3C)OCO4 please.
inactive

Tell me the assay call for COc1cc(C)[nH]c(=O)c1CN1CCc2c(Cl)cc(C(OC)C3COC3)c(Cl)c2C1=O (stereo unspecified) + COc1cc2c(cc1O)CCNC21CSC2c3c(OC(C)=O)c(C)c4c(c3C(COC1=O)N1C(O)C3Cc5cc(C)c(OC)c(O)c5C(C21)N3C)OCO4 please.
inactive
